TEST SYSTEM: T1, ZIKV (prM80E) with a C-terminal myc-myc-hexahistidine tag (Zika virus, UniProt A0A024B7W1 104-694)
T1 construct: also called ZIKV (prM80E)-mmH; ZIKV-mmH
ASSAY SUMMARY: SPR, mAb captured, 25C
Form field: kon (one value per entry).
Please give a number only; it is taken to be in M⁻¹ s⁻¹.

Consider the reported kon for these binders:
BINDER: H4H25587P (antibody, V domains shown) VH: EVQLVESGGGLVQPGRSLTLSCAASGFTFDDYVMHWVRQAPGKGLEWVSGISWNSDTIDYADSVKGRFTISRDNAKNSLYLQMNSLRAEDTALYYCAKDRRSWYGGYFDYWGQGTLVTVSS VL: DIQMTQSPSSLSASVGDRVTITCRASQGISSYLAWYQQKPGKVPKLLIYAASTLQSGVPSRFSGSGSGTDFSLTISSLQPEDVATYYCQKYNSAPLTFGGGTKVEIK
kon / M⁻¹ s⁻¹: 822000
//
BINDER: H4H25710N (antibody, V domains shown) VH: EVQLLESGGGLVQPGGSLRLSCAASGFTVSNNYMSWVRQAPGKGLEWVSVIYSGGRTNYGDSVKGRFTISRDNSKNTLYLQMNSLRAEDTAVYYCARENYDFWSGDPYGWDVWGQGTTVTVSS VL: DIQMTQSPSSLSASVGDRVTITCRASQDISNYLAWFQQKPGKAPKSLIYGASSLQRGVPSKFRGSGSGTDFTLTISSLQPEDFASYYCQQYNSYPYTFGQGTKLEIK
kon / M⁻¹ s⁻¹: 299000

Problem: Give the value of kon reported for the following: H4H25633P (antibody, V domains shown) VH: EVQLVESGGGLVQPGRSLRLSCAASGFTFDDYAIHWVRQAPGKGLEWVSGISWNSGYLGYADSVKGRFTISRDNAKNSLYLQMNSLRAEDTAFYYCAKDVAWGSVRHVFEIWGQGTMVTVSS VL: EIVLTQSPGTLSLSPGERATLSCRASQTITGNQLAWYQQKPGQAPRLLIYFTSSRATGIPDRFSGSGSGTDFSLTISRLEPEDFAVYFCQQFGYSPWTFGQGTKVEIK
Result: 411000
